FYI, the data here is from PubChem BioAssay (NCI).

TGI values by entry
system: RPMI-8226 leukemia; assay: NCI tumour cell line growth inhibition, 48 h
OBSERVATION_TYPE: TGI

* CN(C)c1ccc(/C=C2\C[C@H]3[C@@H]4CCC5=CC(=O)CC[C@]5(C)[C@H]4CC[C@]3(C)C2=O)cc1 | > 100 µM
* O=C1OCC2=C1C(c1ccccc1)c1cc3c(cc1N2CCO)CCC3 (stereo unspecified) | > 25 µM
* CC(C)(C)c1ccc(O)c(Br)c1 | > 100 µM
* COC1=C(C)C(=O)C2C(C1=O)C(c1ccc(OC)c(OC)c1)[C@H]2C (stereo partly specified) | > 100 µM
* O=C1OC(C2Cc3cc4c(cc3C2=O)CCC4)c2ccccc21 (stereo unspecified) | > 100 µM
* N#CC(NC12CC3CC(CC(C3)C1)C2)c1ccccc1 (stereo unspecified) | > 100 µM
* Cc1cc2c(cc1Cl)SC(NN(C)C)=NS2(=O)=O | > 10 µM
* CCOC(=O)CC/C(C)=N\n1c(Cc2ccc(Cl)cc2)n[nH]c1=O | > 100 µM
* O=S1(=O)COc2ccccc2-c2ncncc21 | > 100 µM
* Cc1cc(C)nc(NC(=S)Nc2cccc(Cl)c2)c1 | > 100 µM
* Clc1ccc(-c2nc(-c3c[nH]c4ncccc34)cs2)cc1 | > 100 µM
